Biological target: T1, 4H3666-AA
T1 chain: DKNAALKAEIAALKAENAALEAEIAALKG
Assay: two-hybrid library CCmax;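 note: natural log of median RNA to DNA barcode read ratio; higher means stronger binding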
Details: mean of both orientations
Think of -1 as a floor: if interaction score stands on it or above, it is rule met; beneath it, rule not met.

Query: Reported interaction score at or above -1? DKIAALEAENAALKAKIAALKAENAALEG [4H2283-AA]
Response: rule met

Query: Reported interaction score at or above -1? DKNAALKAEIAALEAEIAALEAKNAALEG [4H3591-AA]
Response: rule not met

Query: Reported interaction score at or above -1? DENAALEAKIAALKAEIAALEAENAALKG [4H1348-AA]
Response: rule not met

Query: Reported interaction score at or above -1? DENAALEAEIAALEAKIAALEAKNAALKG [4H1064-AA]
Response: rule not met

Query: Reported interaction score at or above -1? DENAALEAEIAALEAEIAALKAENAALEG [4H1035-AA]
Response: rule not met

Query: Reported interaction score at or above -1? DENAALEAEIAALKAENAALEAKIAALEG [4H1109-AA]
Response: rule met
